// data source = PubChem BioAssay (EPA / NIEHS)

read-out: UDP glucuronosyltransferase (UGT1A1), UGT1A1 (gene 54658); experiment: LTEA_HepaRG_UGT1A1: Life Technologies and Expression Analysis (LTEA) Assay for UDP glucuronosyltransferase (UGT1A1) using HepaRG (AID 2283538); conditions: mRNA level, 48 h; actives raise or lower the signal
Activity calls are given as the source filed them. The calls were made as follows: active = hit-call score of the fitted dose curve at least 0.9, where 1 is the maximum; inactive = score below 0.9.
I would appreciate it if you answered using one of these outcomes: True for active, False for inactive

Consider the worked cases shown below.
{"smiles": "CCCCCCCCCC[N+](C)(C)CCCCCCCCCC", "group": "False"}
{"smiles": "CCCCCCOC(=O)c1ccccc1C(=O)OCCCCCC", "group": "True"}

Field: outcome | Entry: CCC(=O)O[C@H]1CC[C@H]2[C@@H]3CCC4=CC(=O)CC[C@]4(C)[C@H]3CC[C@]12C
True

Field: outcome | Entry: CC(C)(c1ccccc1)c1ccc(O)cc1
False

Field: outcome | Entry: CCOC(=O)C(O)(c1ccc(Cl)cc1)c1ccc(Cl)cc1
True

Field: outcome | Entry: Clc1ccc(Cl)cc1
False

Field: outcome | Entry: O=S(=O)(O)C(F)(F)C(F)(F)C(F)(F)C(F)(F)F
False

Field: outcome | Entry: CCCN(CCC)N=O
False

Field: outcome | Entry: CCOCCOC(C)=O
False

---

assay: APR_HepG2_CellCycleArrest_72hr: Apredica 72-hour HepG2 Assay for Cell Cycle Arrest (AID 2282914); conditions: high-content imaging, actives raise or lower the signal
The source made the active and inactive calls. The calls were made as follows: active = hit-call score of the fitted dose curve at least 0.9, where 1 is the maximum; inactive = score below 0.9.
I would appreciate it if you answered using one of these outcomes: TRUE (active), FALSE (inactive)

Consider the worked cases shown below.
{"compound": "O=S(=O)(O)C(F)(F)C(F)(F)C(F)(F)C(F)(F)F", "group": "FALSE"}
{"compound": "CCC(C)(c1ccc(O)cc1)c1ccc(O)cc1", "group": "FALSE"}
{"compound": "Cc1ccccc1[N+](=O)[O-]", "group": "FALSE"}

Field: outcome | Entry: COc1ccc(O)c(C(C)(C)C)c1
FALSE

Field: outcome | Entry: O=C(N[C@H]1CN2CCC1CC2)c1cc2ccoc2cn1
FALSE

---

target: Estrogen receptor (Homo sapiens); assay: OT_ERa_GFPERaERE_0120: Odyssey Thera (OT) 2-hour HeLa Transcription Induction Assay for Estrogen Receptor (AID 2283382)
The source made the active and inactive calls. How the source made its calls: active means hit-call score of the fitted dose curve at least 0.9, where 1 is the maximum; inconclusive means response in the unintended direction; inactive means score below 0.9.
I would appreciate it if you answered using one of these outcomes: active, inactive

Consider the worked cases shown below.
{"molecule": "c1ccc(-c2ccccc2)cc1", "group": "inactive"}
{"molecule": "Oc1ccc(Cl)cc1Cl", "group": "inactive"}
{"molecule": "CCC(C)c1cc([N+](=O)[O-])cc([N+](=O)[O-])c1O (stereo not drawn)", "group": "inactive"}
{"molecule": "CCCCCCCCCc1ccc(O)cc1", "group": "inactive"}

Field: outcome | Entry: Clc1ccc(C(Cl)(Cl)Cl)cc1
inactive

Field: outcome | Entry: CCC(C)(c1ccc(O)cc1)c1ccc(O)cc1
active

Field: outcome | Entry: O=C(NC(=O)c1c(F)cccc1F)Nc1cc(Cl)c(OC(F)(F)C(F)F)c(Cl)c1
inactive

Field: outcome | Entry: ClC1=C(Cl)[C@]2(Cl)[C@@H]3[C@@H]4C[C@@H]([C@H]5O[C@@H]45)[C@@H]3[C@@]1(Cl)C2(Cl)Cl
inactive

Field: outcome | Entry: CC#Cc1cc(C)nc(Nc2ccccc2)n1
inactive

Field: outcome | Entry: NS(=O)(=O)C(F)(F)C(F)(F)C(F)(F)C(F)(F)C(F)(F)C(F)(F)C(F)(F)C(F)(F)F
active

Field: outcome | Entry: CCOP(=S)(OCC)SCSC(C)(C)C
inactive

Field: outcome | Entry: CC(C)(O)C(=O)Nc1ccc([N+](=O)[O-])c(C(F)(F)F)c1
inactive

Field: outcome | Entry: CCOCCOC(C)=O
inactive
